Target: Serine protease HTRA1 (Homo sapiens)
Test: inhibition of human HTRA1 peptidase – biochemical, fluorescence polarization, HTS, primary screen (AID 504803);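 note: 0% = enzyme with DMSO and 100% = wells lacking enzyme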
Settings: recombinant HTRA1, FP-rhodamine activity-based probe, at 5.96 µM, hits give high values
Among all 340,000 compounds or so, about 1,700 (0.5%) were called active. The full list was thinned out, with actives kept by preference.
// reported inhibition for each item listed
Please reply with the bare figure in % and do not write the unit itself.

O=C(Nc1cc(S(=O)(=O)N2CCOCC2)ccc1Cl)c1cc(=O)c2ccccc2o1 ... -4.07
CCN(CC)S(=O)(=O)c1ccc(N2CCOCC2)c(NC(=O)C2COc3ccccc3O2)c1 (stereo unspecified) ... -9.82
Cc1c(CCC(=O)O)c(=O)oc2c(C)c(OCc3ccccc3Cl)ccc12 ... -1.83
C[C@@H]1CCCCO[C@H](CN(C)Cc2ccccc2)[C@@H](C)CN([C@H](C)CO)C(=O)c2cc(NS(=O)(=O)c3ccc(Cl)cc3)ccc2O1 ... -17.9
Cc1c(CC(=O)N2CCN(C(=O)C3COc4ccccc4O3)CC2)c(=O)oc2c(O)c(O)ccc12 (stereo unspecified) ... 51.5
NC(=O)CSC1=Nc2ccccc2C2=NC(CCC(=O)NCc3ccc(F)cc3)C(=O)N12 (stereo unspecified) ... 1.09

Param item = `O=C(c1cc(S(=O)(=O)N2CCOCC2)ccc1Cl)N1CCOCC1` ; retrieve measured inhibition. 2.81

Try this compound too: `CN(c1ccccc1)S(=O)(=O)c1ccc(C(=O)NCc2cccnc2)cc1` 2.31

Try this compound too: `COC(=O)c1ccccc1N=NNc1ccc([N+](=O)[O-])cc1` 3.36

Try this compound too: O=C(CSC1=Nc2ccccc2C2=NC(c3ccccc3)C(=O)N12)NCC1CCCO1 (stereo unspecified) 5.98

Try this compound too: `Cc1ccc(CCNC(=O)CN2C(=O)CSc3ccc(S(=O)(=O)N4CCOCC4)cc32)cc1` -3.89
